Recorded values, source patent US20070134256A1.

# target.or.test.system: dengue type 1 virus (DENV-1), Western Pacific strain, virions (dengue type 1 virus, UniProt P17763 281-775; P17763 115-280)
# Sequence (P17763 281-775 limits assumed, chain 1 of 2): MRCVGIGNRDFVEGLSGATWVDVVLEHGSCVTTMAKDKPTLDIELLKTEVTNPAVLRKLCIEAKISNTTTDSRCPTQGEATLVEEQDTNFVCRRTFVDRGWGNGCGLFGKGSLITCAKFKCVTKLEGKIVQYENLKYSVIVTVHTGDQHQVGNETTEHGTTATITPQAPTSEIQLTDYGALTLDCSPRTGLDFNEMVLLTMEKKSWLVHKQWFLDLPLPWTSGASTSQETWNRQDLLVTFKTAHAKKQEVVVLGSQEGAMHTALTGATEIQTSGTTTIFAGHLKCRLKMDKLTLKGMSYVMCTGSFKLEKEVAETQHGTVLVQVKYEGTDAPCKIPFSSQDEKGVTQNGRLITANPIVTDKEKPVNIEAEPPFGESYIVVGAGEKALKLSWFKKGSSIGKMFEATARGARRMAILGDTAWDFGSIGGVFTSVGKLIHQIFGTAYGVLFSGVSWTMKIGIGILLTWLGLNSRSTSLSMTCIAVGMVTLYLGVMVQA
# Sequence (P17763 115-280 limits assumed, chain 2 of 2): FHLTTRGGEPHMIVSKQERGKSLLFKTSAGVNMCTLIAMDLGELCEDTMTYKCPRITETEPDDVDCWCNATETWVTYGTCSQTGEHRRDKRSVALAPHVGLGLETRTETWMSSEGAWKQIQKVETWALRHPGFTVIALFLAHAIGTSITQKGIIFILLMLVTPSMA
# procedure.summary: ELISA, virion-coated plate, Fab from ~140 µg/ml
outcome.measure: ELISA titer of Fab binding

binder	measured.value
chimpanzee Fab 1B2 (Fab, V domains shown) VH: EVQLLESGPGLVKPSQTLSLTCAVSGGSITSDHYFWSWMRQAPGRGLEWIGYISYRGTTYYNPSLKSRVTMSVTAAKNTLYLQMDGLRPEDTAVYYCARASVTAGMPAAGTLDHWGQGTLVTVSS VL: ELQMTQSPSSLSASVGDRVTITCRASQGISSELNWYQQKPGKAPKLLIYDASSLESGVPSRFSGSGSGTDFTLTISSLQPEDFATYYCQHFNSFPWTFGQGTKLEIKR	3.9 log10 of reciprocal dilution
chimpanzee Fab 1A10 (Fab, V domains shown) VH: VQLLEESGAEVKKPGSSVKVSCKVSGGTFSRNPISWVRQAPGQGLEWMGVIVPIVGTTKHAQKFQGRVTIIADESTSTAYMELSSLRSEDTAVYYCATYYADGSSYSEYWGQGTLVTVSS VL: ELQMTQSPLSLSVAPGQPASISCKSSQSLLHSDGNTYLFWYLQKSGQSPQLLIYGLSNRASGVPDRFSGSGSGTDFTLKISQVEAEDVGVFYCMQGTQLPYTFGQGTKLEIKR	4.1 log10 of reciprocal dilution
chimpanzee Fab 3E4 (Fab, V domains shown) VH: VQLLEQSGAEVKKPGGSVKVSCKVSGGTFSRNPISWVRQAPGQGLEWMSVIVPIVGTTKHAQKFQGRVTITADESTSTAYMELSSLRSEDTAVYYCATYRRYADVSSYSEYWGQGTLVTVSS VL: ELTQSPLSLPVTLGQPASISCRSSQNLVHSDGNTYLSWIQQRPGQPPRLLIYKVSNRDSGVPDRFSGSGAGTDFTLKITRVEAEDVGLYYCVQGVQFPITFGQGTKLEIKR	4 log10 of reciprocal dilution
chimpanzee Fab 1A5 (Fab, V domains shown) VH: EVQLLESGGGLVQPGGSRRLSCAASGFTISDNVMHWVRQAPGKGLEWVALIYSADTTHYADSVKGRFTISRDNSKNTLYLQMDSLRPEDTAVYYCAREYCTGDTCFAHFDYWGQGTLVSVSS VL: ELQMTQSPSSVSASVGDTVTIACRASQSITNYLSWYQQKPGKAPKLLIYHASTLQSGIPSRFSGSGSGTDFTLTISSLQPDDFATYYCHYGYGTHTFGQGTKLEIKR	4.1 log10 of reciprocal dilution
